// reported Trimeric HA Binding: RLU per item
biological target: recombinant homotrimeric HA A/California/4/09 H1N1 (Influenza A virus A/California/04/2009(H1N1)); test: protein microarray, purified IgG, trimeric HA; conditions: remark: other sources report otherwise
Note to self: number, then unit, no commentary.

binder	metric name	value reported
TCN-537 (3194_D21) (antibody, V domains shown) VH: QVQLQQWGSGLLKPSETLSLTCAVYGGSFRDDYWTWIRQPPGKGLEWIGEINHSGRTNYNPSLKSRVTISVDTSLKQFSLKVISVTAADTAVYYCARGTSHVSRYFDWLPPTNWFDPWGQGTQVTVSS VL: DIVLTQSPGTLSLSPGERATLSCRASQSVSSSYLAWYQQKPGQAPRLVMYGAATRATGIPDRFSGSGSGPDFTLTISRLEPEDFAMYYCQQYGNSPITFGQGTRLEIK	Trimeric HA Binding: RLU	10200 RLU

Shifting focus to the binder that follows.
The reported Trimeric HA Binding: RLU of the binder TCN-541 (5062_M11) (antibody, V domains shown) VH: QVQLQESGPGLVKPSETLSLTCTVSGGSINSYYWNWIRQPPGKGLEWIGYIYHSGSTNYNPSLKSRVTISVDTSKNQFSLQLSSVTAADTAVYYCARLRTDYGDPDSVYYYGMDVWGQGTTVTVSS VL: SYELTQPPSVSVSPGQTARITCSGDALPKQNAYWYQQKPGQAPVLLIYKDSERPSGIPERFSGSSSGTTVTLTISGVQAEDEADYYCQSADSSGTSWVFGGGTKLTVL was 348 RLU
